Measured values drawn from paper PMC7921063 for this set.

Target: SLC19A2 (Homo sapiens, UniProt O60779)
Sequence (O60779 1-497): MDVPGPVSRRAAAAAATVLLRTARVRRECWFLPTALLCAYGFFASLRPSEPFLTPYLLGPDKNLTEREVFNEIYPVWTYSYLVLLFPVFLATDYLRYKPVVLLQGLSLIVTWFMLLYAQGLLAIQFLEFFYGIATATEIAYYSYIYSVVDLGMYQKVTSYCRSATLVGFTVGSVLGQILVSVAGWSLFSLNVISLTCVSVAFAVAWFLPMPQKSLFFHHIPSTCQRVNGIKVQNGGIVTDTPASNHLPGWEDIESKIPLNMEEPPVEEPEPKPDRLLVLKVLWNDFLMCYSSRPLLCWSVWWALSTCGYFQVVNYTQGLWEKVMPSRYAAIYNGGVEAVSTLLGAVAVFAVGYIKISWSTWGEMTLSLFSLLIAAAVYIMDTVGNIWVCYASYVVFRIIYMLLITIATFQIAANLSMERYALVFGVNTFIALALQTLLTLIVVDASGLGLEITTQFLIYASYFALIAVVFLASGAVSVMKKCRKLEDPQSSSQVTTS
Test: SLC19A2 inhibitor screen: [3H]-thiamine uptake in SLC19A2-overexpressing HEK293 cells
Assay type: cell-based
Set-up: host or cells: HEK293, stably overexpressing SLC19A2 and transiently transfected with a further 500 ng wild-type plasmid
Conditions: HEK293, 10 min, drug 1 mM, [3H]-thiamine 25 nM, 10 min, HEK293 cells expressing SLC19A2; relative to uptake without inhibitor; read-out: Average % SLC19A2 thiamine uptake
metric name: remaining activity at 1000 µM (%)

compound	reading
[H]/N=C(\N/C(=N/[H])Nc1ccc(Cl)cc1)NC(C)C	68.8
O=c1[nH]cc(F)c(=O)[nH]1	93.8
S=c1[nH]cnc2nc[nH]c12	90.5
CN(C)[C@@H]1C(O)=C(C(N)=O)C(=O)[C@@]2(O)C(O)=C3C(=O)c4c(O)cccc4[C@@](C)(O)[C@H]3C[C@@H]12	83.6
C[C@]12CC[C@@H]3c4ccc(O)cc4CC[C@H]3[C@@H]1CC[C@@H]2O	112

A: NNC(=O)c1ccncc1
B: Cc1oncc1C(=O)Nc1ccc(C(F)(F)F)cc1 [Leflunomide]
Sorting by remaining activity at 1000 µM in descending order, would A or B appear first? Answer by quoting the chosen item's label.
A
(A: 108%, B: 57.7%)

1: COc1ncnc(NS(=O)(=O)c2ccc(N)cc2)c1OC
2: Nc1ccn([C@@H]2O[C@H](CO)[C@@H](O)C2(F)F)c(=O)n1
# query: argmin of remaining activity at 1000 µM over 1 and 2 Answer by quoting the chosen item's label.
2
(2: 63.3%, 1: 94.8%)

a: NC(N)=Nc1nc(CSCCC(N)=NS(N)(=O)=O)cs1
b: CN/C(=N/CCSCc1nc[nH]c1C)NC#N
# query: argmin of remaining activity at 1000 µM over a and b Answer by quoting the chosen item's label.
a
